Data credit: patent US20230120736A1

MEASUREMENT TARGET: T1, human CD98 (Homo sapiens, UniProt P08195)
T1 sequence (P08195 1-630 isoform P08195-1): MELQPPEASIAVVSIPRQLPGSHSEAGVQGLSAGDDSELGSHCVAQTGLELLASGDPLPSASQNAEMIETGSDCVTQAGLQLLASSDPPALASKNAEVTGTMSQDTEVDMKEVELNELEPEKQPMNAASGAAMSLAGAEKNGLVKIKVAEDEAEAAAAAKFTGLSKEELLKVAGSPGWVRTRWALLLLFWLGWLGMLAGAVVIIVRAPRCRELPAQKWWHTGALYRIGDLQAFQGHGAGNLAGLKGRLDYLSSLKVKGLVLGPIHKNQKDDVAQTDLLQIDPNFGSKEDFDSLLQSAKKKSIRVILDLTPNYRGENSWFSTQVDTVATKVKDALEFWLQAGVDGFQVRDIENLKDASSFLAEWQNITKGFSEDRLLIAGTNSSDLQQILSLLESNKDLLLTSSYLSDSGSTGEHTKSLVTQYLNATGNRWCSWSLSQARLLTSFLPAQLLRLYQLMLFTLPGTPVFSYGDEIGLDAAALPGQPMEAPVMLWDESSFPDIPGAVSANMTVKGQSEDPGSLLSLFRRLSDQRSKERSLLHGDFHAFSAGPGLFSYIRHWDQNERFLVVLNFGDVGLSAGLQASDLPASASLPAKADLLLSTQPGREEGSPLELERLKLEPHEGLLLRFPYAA
ASSAY PROTOCOL: Binding of humanized antibodies to human CD98
REPORTED CONDITIONS: humanized framework engineered antibodies
PROPERTY LABEL: binding to human CD98

1) huAb103: "heavy chain variable sequence of huAb103 is provided in SEQ ID NO: 109"; "light chain variable sequence ... in SEQ ID NO: 107" (antibody, V domains shown) VH: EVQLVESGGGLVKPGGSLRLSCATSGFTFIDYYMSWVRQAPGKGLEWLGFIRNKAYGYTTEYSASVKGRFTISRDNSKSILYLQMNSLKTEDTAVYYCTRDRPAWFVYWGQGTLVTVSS VL: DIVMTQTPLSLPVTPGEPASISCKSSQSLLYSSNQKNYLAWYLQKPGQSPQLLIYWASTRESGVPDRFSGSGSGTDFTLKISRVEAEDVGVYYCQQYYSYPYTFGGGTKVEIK    maintained binding
2) huAb107: "heavy chain variable sequence of huAb107 is provided in SEQ ID NO: 114"; "light chain variable sequence ... in SEQ ID NO: 112" (antibody, V domains shown) VH: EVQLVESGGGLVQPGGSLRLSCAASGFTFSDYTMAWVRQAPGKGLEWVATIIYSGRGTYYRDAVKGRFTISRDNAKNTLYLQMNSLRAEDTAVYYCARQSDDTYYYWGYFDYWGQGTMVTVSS VL: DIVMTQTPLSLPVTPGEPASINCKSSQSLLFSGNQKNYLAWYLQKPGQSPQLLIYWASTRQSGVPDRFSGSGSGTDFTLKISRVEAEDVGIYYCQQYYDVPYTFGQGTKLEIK    maintained binding
